# study system: T1, human TF-His (human, UniProt P13726 33-251)
# T1 construct: range 33-251; Recombinant extracellular segment expressed in HEK293-EBNA cells and purified on a nickel column; also called h.TF-His; h; TF-his; not shown: His tag from vector pTT5-His
# experimental protocol: BLI (ForteBio Octet), antibody on ProA sensor, TF-His as analyte
observation type: kon (M⁻¹ s⁻¹)
Kindly provide the numeric value in M⁻¹ s⁻¹ only, without the unit symbol.

Exercise: Need kon of 2B12B10-hz1 (antibody, human IgG1, kappa, V domains shown, Humanized IgG1 kappa) VH: EVQLVESGGGLVQPGGSLRLSCAASGFAFSDSGMHWVRQAPGKGLEWVAYISRDSNTIYYADSVKGRFTISRDNAKNSLYLQMNSLRAEDTAVYYCGRRYYGDYFDYWGQGTLVTVSS VL: DIVLTQSPATLSLSPGERATLSCRASQRVTNYLHWYQQKPGQSPRLLIKYASQSISGIPARFSGSGSGTDFTLTISSLEPEDFAVYFCQQSYNWPLTFGQGTKVEIKR , thanks.
Key: 209000

Exercise: Can you share its kon? I mean this binder: 22F11H5-hz1 (antibody, human IgG1, kappa, V domains shown, Humanized IgG1 kappa) VH: QVQLVQSGAEVKQPGASVKVSCKASGYTFTTYWMHWVRQAPGQGLEWMGMIDPSDSYTTYAQKFQGRVTLTVDTSTSTAYMELSSLRSEDTAVYYCARGSGPGLFAYWGQGTLVTVSS VL: DIQETQSPSSLSASVGDRVTITCRASQDIRNYLNWYQQKPGKAPKLLIYHTSRLQSGVPSRFSGSGSGTDYTLTISSLQPEDFATYYCQQGNMPPYTFGQGTKVEIKR
Key: 302000

Exercise: What value of measured kon is listed for 27H8H3-hz1 (antibody, human IgG1, kappa, V domains shown, Humanized IgG1 kappa) VH: QVQLVQSGAEVKKPGASVKVSCKASGYTFTTYWMHWVRQAPGQGLEWMGMIDPSDSYTSYAQKFQGRVTLTVDTSTSTAYMELSSLRSEDTAVYYCTRGSGPGLFAYWGQGTLVTVSS VL: DIQETQSPSSLSASVGDRVTITCRASQGISNYLNWYQQKPGKAPKLLIYHTSRLHSGVPSRFSGSVSGTDFTLTISSLQPEDFATYFCQQGNTLPYTFGQGTKVEIKR ?
Key: 273000

Exercise: Any idea what kon was measured for 30G11B7-hz1 (antibody, human IgG1, kappa, V domains shown, Humanized IgG1 kappa) VH: EVQLVESGGGLVKPGGSLRLSCAASGFTFSDYGMFWVRQAPGKGLEWVAYISRGSTTIYYADSVKGRFTISRDNAKNSLYLQMNSLRAEDTAVYFCTRRYYGDYFDYWGQGTLVTVSS VL: EIVLTQSPDFQSVTPKEKVTITCRASQSISNYLHWYQQKPDQSPKLLIKYASQSISGVPSRFSGSGSGTDFTLTINSLEAEDAATYFCQQSYNWPLTFGQGTKVEIKR ?
Key: 197000
